Biological target: full-length ATR (Homo sapiens, UniProt Q13535)
Construct: Assays were carried out at 25° C. in the presence of 5 nM full-length ATR
Sequence (Q13535 whole entry): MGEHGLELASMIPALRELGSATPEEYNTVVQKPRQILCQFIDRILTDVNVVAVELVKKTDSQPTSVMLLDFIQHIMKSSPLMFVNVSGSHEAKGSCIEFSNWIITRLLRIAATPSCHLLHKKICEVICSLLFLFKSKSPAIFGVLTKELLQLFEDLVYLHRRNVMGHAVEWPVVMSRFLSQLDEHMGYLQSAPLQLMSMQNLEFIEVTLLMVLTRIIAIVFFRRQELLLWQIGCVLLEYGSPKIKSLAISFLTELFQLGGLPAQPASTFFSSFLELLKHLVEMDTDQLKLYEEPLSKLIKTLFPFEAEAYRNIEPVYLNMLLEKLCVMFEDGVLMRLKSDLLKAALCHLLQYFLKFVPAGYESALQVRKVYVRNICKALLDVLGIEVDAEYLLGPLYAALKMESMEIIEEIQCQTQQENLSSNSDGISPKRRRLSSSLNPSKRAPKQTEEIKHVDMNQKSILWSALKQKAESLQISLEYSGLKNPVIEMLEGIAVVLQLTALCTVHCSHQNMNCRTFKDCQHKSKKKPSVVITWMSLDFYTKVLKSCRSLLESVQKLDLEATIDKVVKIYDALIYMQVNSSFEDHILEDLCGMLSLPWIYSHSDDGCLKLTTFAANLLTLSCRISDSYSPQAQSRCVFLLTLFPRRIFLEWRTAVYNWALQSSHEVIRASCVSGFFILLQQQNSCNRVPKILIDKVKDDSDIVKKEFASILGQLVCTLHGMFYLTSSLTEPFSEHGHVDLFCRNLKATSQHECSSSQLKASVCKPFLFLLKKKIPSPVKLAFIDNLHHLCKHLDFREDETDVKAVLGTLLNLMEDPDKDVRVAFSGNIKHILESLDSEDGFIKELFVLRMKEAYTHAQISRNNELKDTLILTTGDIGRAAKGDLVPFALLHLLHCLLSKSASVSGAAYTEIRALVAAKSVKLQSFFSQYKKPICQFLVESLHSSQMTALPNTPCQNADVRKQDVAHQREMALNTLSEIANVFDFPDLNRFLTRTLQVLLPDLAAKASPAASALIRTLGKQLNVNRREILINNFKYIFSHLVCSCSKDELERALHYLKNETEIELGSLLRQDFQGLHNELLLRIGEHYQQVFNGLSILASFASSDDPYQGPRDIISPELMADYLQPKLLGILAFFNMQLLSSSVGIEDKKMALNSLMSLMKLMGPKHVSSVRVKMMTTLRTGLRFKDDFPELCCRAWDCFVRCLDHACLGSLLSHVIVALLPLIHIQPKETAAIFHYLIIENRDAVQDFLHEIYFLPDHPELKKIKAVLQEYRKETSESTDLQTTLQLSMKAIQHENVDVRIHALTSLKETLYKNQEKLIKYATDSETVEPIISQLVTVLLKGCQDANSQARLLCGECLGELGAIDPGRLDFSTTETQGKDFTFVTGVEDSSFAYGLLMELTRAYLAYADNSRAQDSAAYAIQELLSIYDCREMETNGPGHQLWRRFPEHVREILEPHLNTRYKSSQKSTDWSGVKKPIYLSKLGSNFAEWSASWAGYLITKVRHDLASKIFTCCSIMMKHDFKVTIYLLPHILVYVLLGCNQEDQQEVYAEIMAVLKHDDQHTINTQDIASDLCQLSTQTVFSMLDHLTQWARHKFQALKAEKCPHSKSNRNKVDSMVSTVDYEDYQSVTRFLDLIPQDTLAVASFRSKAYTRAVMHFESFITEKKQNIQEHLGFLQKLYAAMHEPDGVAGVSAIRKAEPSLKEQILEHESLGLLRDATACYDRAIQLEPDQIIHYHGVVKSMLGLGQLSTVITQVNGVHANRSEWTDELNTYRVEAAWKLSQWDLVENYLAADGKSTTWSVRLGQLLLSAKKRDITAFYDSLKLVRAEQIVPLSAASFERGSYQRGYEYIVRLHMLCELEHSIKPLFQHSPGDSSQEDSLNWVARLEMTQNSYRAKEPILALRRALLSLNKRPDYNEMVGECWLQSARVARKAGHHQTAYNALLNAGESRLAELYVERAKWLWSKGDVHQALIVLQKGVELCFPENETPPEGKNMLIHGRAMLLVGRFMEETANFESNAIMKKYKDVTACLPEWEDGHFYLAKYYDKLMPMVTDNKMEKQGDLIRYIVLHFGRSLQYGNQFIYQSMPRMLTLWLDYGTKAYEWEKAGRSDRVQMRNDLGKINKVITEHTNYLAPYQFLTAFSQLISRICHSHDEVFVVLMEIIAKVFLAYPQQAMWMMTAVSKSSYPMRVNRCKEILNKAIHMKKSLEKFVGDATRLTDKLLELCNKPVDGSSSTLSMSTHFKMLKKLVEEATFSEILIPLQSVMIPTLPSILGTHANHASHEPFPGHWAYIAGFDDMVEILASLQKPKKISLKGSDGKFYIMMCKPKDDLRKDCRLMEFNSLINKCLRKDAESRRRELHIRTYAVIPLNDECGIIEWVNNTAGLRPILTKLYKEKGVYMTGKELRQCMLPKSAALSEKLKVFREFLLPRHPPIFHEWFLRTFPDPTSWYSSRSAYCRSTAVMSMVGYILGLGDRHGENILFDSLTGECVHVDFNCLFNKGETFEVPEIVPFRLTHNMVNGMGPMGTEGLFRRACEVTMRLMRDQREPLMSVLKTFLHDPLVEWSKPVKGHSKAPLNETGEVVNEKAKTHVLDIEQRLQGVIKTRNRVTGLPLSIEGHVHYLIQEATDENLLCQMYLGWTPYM
Assay: ATR Inhibition Assay (radioactive-phosphate incorporation)
Conditions: Ki(app); 10 μM ATP, 800 μM target peptide, 5 nM full-length ATR, 25° C.
pKi: −log10 of the molar value.
# pKi values compiled below

In the examples that follow, each entry is paired with its recorded pKi.
{"COMPOUND": "Nc1ncc(Nc2cccc(F)c2)nc1C(=O)Nc1ccccc1 [II-4]", "pKi": "≥ 6.30"}
{"COMPOUND": "Cc1ccc2nc(-c3nc(Oc4c(F)cccc4F)cnc3N)[nH]c2c1 [II-22]", "pKi": "5.10 to 6.00"}
{"COMPOUND": "Cc1ccc2nc(-c3nc(C(=O)NCC4CC4)cnc3N)[nH]c2c1 [II-56]", "pKi": "≥ 6.30"}
{"COMPOUND": "Cc1ccc2nc(-c3nc(C(=O)NCC#N)cnc3N)[nH]c2c1 [II-48]", "pKi": "≥ 6.30"}
{"COMPOUND": "Cc1ccc2nc(-c3nc(C(=O)NCc4ccco4)cnc3N)[nH]c2c1 [II-68]", "pKi": "6.00 to 6.30"}

Name the reported pKi value associated with the compound Nc1ncc(Sc2ccccc2)nc1C(=O)Nc1ccccc1 [II-37]
5.10 to 6.00

Let us now turn to CC(C)(O)C#Cc1cnc(N)c(C(=O)Nc2ccccc2)n1 [II-81]
6.00 to 6.30

Let us now turn to COc1ccc(CNC(=O)c2cnc(N)c(-c3nc4ccc(C)cc4[nH]3)n2)cc1 [II-65]
≥ 6.30

Let us now turn to Cc1ccc2nc(-c3nc(C#CCNS(C)(=O)=O)cnc3N)[nH]c2c1 [II-87]
6.00 to 6.30

Let us now turn to Cc1ccc2nc(-c3nc(C(=O)N[C@@H](C)c4ccccc4)cnc3N)[nH]c2c1 [II-59]
6.00 to 6.30

* * *

Target: full-length ATR (Homo sapiens)
Construct: Assays were carried out at 25° C. in the presence of 5 nM full-length ATR
Assay: ATR Inhibition Assay (radioactive-phosphate incorporation)
Conditions: Ki(app); 10 μM ATP, 800 μM target peptide, 5 nM full-length ATR, 25° C.
# Ki values compiled below

In the examples that follow, each entry is paired with its recorded Ki.
{"COMPOUND": "Nc1ncc(C#CCCO)nc1-c1nnc(-c2ccccc2)o1", "Ki": "1000 to 8000 nM"}
{"COMPOUND": "Cc1ccc2nc(-c3nc(OC4CCOC4)cnc3N)[nH]c2c1 (stereo not drawn)", "Ki": "500 to 1000 nM"}
{"COMPOUND": "Nc1ncc(OCCO)nc1-c1nc2ccccc2[nH]1", "Ki": "1000 to 8000 nM"}
{"COMPOUND": "Nc1ncc(Nc2cccnc2)nc1C(=O)Nc1ccccc1", "Ki": "≤ 500 nM"}
{"COMPOUND": "Nc1ncc(Sc2cccc(Cl)c2)nc1-c1nc2ccccc2[nH]1", "Ki": "1000 to 8000 nM"}

Query compound follows.
Name the reported Ki value associated with the compound "Nc1ncc(Nc2ccccc2)nc1C(=O)Nc1ccccc1"
≤ 500 nM

* * *

Target: full-length ATR (Homo sapiens)
Construct: Assays were carried out at 25° C. in the presence of 5 nM full-length ATR
Assay: ATR Inhibition Assay (radioactive-phosphate incorporation)
Type: biochemical
Conditions: Ki(app); 10 μM ATP, 800 μM target peptide, 5 nM full-length ATR, 25° C.
pKi: −log10 of the molar value.
REPORTED ENDPOINT: pKi

{"COMPOUND": "Cc1ccc2nc(-c3nc(Oc4ccc(F)cc4)cnc3N)[nH]c2c1", "RESULT": "5.10 to 6.00"}
{"COMPOUND": "CCN(CC)C(=O)c1cnc(N)c(-c2nc3ccc(C)cc3[nH]2)n1", "RESULT": "5.10 to 6.00"}
{"COMPOUND": "Cc1ccc2nc(-c3nc(C#CCN(C)C)cnc3N)[nH]c2c1", "RESULT": "5.10 to 6.00"}
{"COMPOUND": "Cc1ccc2nc(-c3nc(C(=O)N(C)c4ccccc4)cnc3N)[nH]c2c1", "RESULT": "6.00 to 6.30"}
{"COMPOUND": "C=CCNC(=O)c1cnc(N)c(-c2nc3ccc(C)cc3[nH]2)n1", "RESULT": "5.10 to 6.00"}
{"COMPOUND": "Cc1ccc2nc(-c3nc(C(=O)NCCN4CCCC4)cnc3N)[nH]c2c1", "RESULT": "6.00 to 6.30"}
{"COMPOUND": "Cc1ccc2nc(-c3nc(C(=O)Nc4ccc(N5CCN(C)CC5)nc4)cnc3N)[nH]c2c1", "RESULT": "5.10 to 6.00"}
{"COMPOUND": "Cc1ccc2nc(-c3nc(NC(=O)CC#N)cnc3N)[nH]c2c1", "RESULT": "6.00 to 6.30"}

Name the reported pKi value associated with the compound "Cc1ccc2nc(-c3nc(C(=O)N(C)Cc4ccccc4)cnc3N)[nH]c2c1"
6.00 to 6.30
